Cited source for all entries: the supplement of paper PMC11061612

# combination Emax per record follows
Test system: MHH-ES-1 (Ewing's Sarcoma)
Assay Notes: combination Emax (second highest fraction inhibited in the dose matrix, 72 h); higher = more inhibition; extreme values may be limits of the assay
Could you keep your reply to the number by itself?

Past entries and their recorded results:
INSERT INTO assay_data (compound, recorded_endpoint, result_number) VALUES
  ('C[C@@H](Nc1cc(F)cc(F)c1)c1cc(C(=O)N(C)C)cc2c(=O)cc(N3CCOCC3)oc12 [AZD8186] + C1CN(CCC1(C(=O)N[C@@H](CCO)C2=CC=C(C=C2)Cl)N)C3=NC=NC4=C3C=CN4 [AZD5363] (first compound max 10 µM, 7x7, partner max 10 µM)', 'combination Emax', 0.358),
  ('CN(CCO)CC[C@H](CSc1ccccc1)Nc1ccc(S(=O)(=O)NC(=O)c2ccc(N3CCC([C@@H](O)c4ccccc4-c4ccc(Cl)cc4)CC3)cc2)cc1S(=O)(=O)C(F)(F)F [AZD4320] + Cc1cc2ncnn2cc1Nc1ncc2c(n1)n(C1CCOCC1)c(=O)n2C [AZD7648] (first compound max 1 µM, 7x7, partner max 10 µM)', 'combination Emax', 0.497),
  ('CN(CCO)CC[C@H](CSc1ccccc1)Nc1ccc(S(=O)(=O)NC(=O)c2ccc(N3CCC([C@@H](O)c4ccccc4-c4ccc(Cl)cc4)CC3)cc2)cc1S(=O)(=O)C(F)(F)F [AZD4320] + C=CCn1c(=O)c2cnc(Nc3ccc(N4CCN(C)CC4)cc3)nc2n1-c1cccc(C(C)(C)O)n1 [AZD1775] (first compound max 1 µM, partner max 1 µM)', 'combination Emax', 0.947),
  ('N#Cc1cnc(Nc2cc(NC[C@H]3CNCCO3)c(C(F)(F)F)cn2)cn1 [SRA737] + O=c1[nH]cc(F)c(=O)[nH]1 [5-Fluorouracil] (first compound max 10 µM, 7x7, partner max 20 µM)', 'combination Emax', 0.697),
  ('COc1nnc2ccc(N3CCC(c4ccc(OCCN5CCN(C)C(=O)[C@H]5C)cc4)CC3)nn12 [AZD5153] + Cn1cnc2c(F)c(Nc3ccc(Br)cc3Cl)c(C(=O)NOCCO)cc21 [Selumetinib] (first compound max 1 µM, 7x7, partner max 10 µM)', 'combination Emax', 0.707);

Query block: Bench note: what combination Emax did O=C(c1cc(Cc2n[nH]c(=O)c3ccccc23)ccc1F)N1CCN(C(=O)C2CC2)CC1 [Olaparib] + CN(CC[C@H](CSC1=CC=CC=C1)NC2=C(C=C(C=C2)S(=O)(=O)NC(=O)C3=CC=C(C=C3)N4CCC(CC4)[C@H](C5=CC=CC=C5C6=CC=C(C=C6)Cl)O)S(=O)(=O)C(F)(F)F)CCO [AZD4320] (first compound max 10 µM, 7x7, partner max 1 µM) show?
Result block: 0.952

Query block: Bench note: what combination Emax did NC1(C(=O)N[C@@H](CCO)c2ccc(Cl)cc2)CCN(c2ncnc3[nH]ccc23)CC1 [Capivasertib] + Cn1cnc2c(F)c(Nc3ccc(Br)cc3Cl)c(C(=O)NOCCO)cc21 [Selumetinib] (first compound max 10 µM, 7x7, partner max 10 µM) show?
Result block: 0.379

Query block: Bench note: what combination Emax did COc1cccc(OCCCN)c1-c1cc(Nc2cnc(C#N)cn2)n[nH]1 [Prexasertib] + Cc1cc2ncnn2cc1Nc1ncc2c(n1)n(C1CCOCC1)c(=O)n2C [AZD7648] (first compound max 1 µM, 7x7, partner max 10 µM) show?
Result block: 0.742

Query block: Bench note: what combination Emax did Cc1nc(-c2cn3c(n2)-c2ccc(-c4cnn(C(C)(C)C(N)=O)c4)cc2OCC3)n(C(C)C)n1 [Taselisib] + O=C(Nc1ccc2[nH]nc(-c3ccncc3)c2c1)[C@@H]1CCN(CC(=O)N2CCN(c3ccc(-c4ncccn4)cc3)CC2)C1 [SCH772984] (first compound max 10 µM, 7x7, partner max 5 µM) show?
Result block: 0.609

Query block: Bench note: what combination Emax did C[C@@H]1COCCN1c1cc(C2([S@](C)(=N)=O)CC2)nc(-c2ccnc3[nH]ccc23)n1 [AZD6738] + C1CC(C1)(C(=O)[O-])C(=O)[O-].N.N.[Pt+2] [Carboplatin] (first compound max 10 µM, 7x7, partner max 10 µM) show?
Result block: 0.51

Query block: Bench note: what combination Emax did Cc1c2c(nn1C)CSCc1cc(n(C)n1)CSc1cc(c3ccccc3c1)OCCCc1c(C(=O)O)n(C)c3c-2c(Cl)ccc13 [AZD5991] + CN(C)CCCOc1ccc(-c2ccc3ncc4c(c3c2)n(C2CCOCC2)c(=O)n4C)cn1 [AZD0156] (first compound max 1 µM, 7x7, partner max 1 µM) show?
Result block: 0.652

Query block: Bench note: what combination Emax did N#Cc1cnc(Nc2cc(NC[C@H]3CNCCO3)c(C(F)(F)F)cn2)cn1 [SRA737] + Nc1ccn([C@@H]2O[C@H](CO)[C@@H](O)C2(F)F)c(=O)n1 [Gemcitabine] (first compound max 10 µM, 7x7, partner max 0.3 µM) show?
Result block: 0.986
